Tested on: U-251
Assay: Growth inhibition of human U251 cells assessed as cell growth at 10 uM after 48 hrs by SRB assay
Format: functional
Conditions: U-251, 48 h, read-out: Activity
measured.parameter: growth at 10 µM (%)
Response body: numeric value in %, unit text excluded.

Solved entries (count: 3):
CNC(=O)NC[C@H]1O[C@@H](n2cnc3c(NC(=O)Nc4ccccc4)ncnc32)[C@H](O[Si](C)(C)C(C)(C)C)[C@@H]1CC(=O)N(C)OC; 90
CNC(=O)OC[C@H]1O[C@@H](n2cnc3c(NC(=O)Nc4ccccc4)ncnc32)[C@H](O[Si](C)(C)C(C)(C)C)[C@@H]1O[Si](C)(C)C(C)(C)C; 86
CCOC(=O)C[C@H]1[C@@H](O[Si](C)(C)C(C)(C)C)[C@H](n2cnc3c(NC(=O)Nc4ccccc4)ncnc32)O[C@@H]1CNC(=O)NC; 94

[ask] What growth at 10 µM value was documented for this compound, CNC(=O)NC[C@H]1O[C@@H](n2cnc3c(NC(=O)Nc4ccccc4)ncnc32)[C@H](O[Si](C)(C)C(C)(C)C)[C@@H]1O[Si](C)(C)C(C)(C)C ?
[reply] 93

* * *

Tested on: ACHN
Assay: Growth inhibition of human ACHN cells assessed as cell growth at 10 uM after 48 hrs by SRB assay
Format: functional
Details: read-out: Activity
measured.parameter: growth at 10 µM (%)
I only need the number, in %, no unit after it.

[ask] Endpoint output: growth at 10 µM of CNC(=O)OC[C@H]1O[C@@H](n2cnc3c(NC(=O)Nc4ccccc4)ncnc32)[C@H](O[Si](C)(C)C(C)(C)C)[C@@H]1O[Si](C)(C)C(C)(C)C . Value?
[reply] 94.6

* * *

Test system: SF-295
Assay: Growth inhibition of human SF295 cells assessed as cell growth at 10 uM after 48 hrs by SRB assay
Type: functional
Details: SF-295, 48 h, read-out: Activity
measured.parameter: growth at 10 µM (%)
The reply should be a number in %, with the unit left off.

CNC(=O)NC[C@H]1O[C@@H](n2cnc3c(NC(=O)Nc4ccccc4)ncnc32)[C@H](O[Si](C)(C)C(C)(C)C)[C@@H]1O[Si](C)(C)C(C)(C)C; 111

[ask] Return growth at 10 µM measured with SF-295 given this molecule: CNC(=O)NC[C@H]1O[C@@H](n2cnc3c(NC(=O)Nc4ccccc4)ncnc32)[C@H](O[Si](C)(C)C(C)(C)C)[C@@H]1CC(=O)N(C)OC
[reply] 98

[ask] Form entry - test system: SF-295; read-out: growth at 10 µM; molecule: CNC(=O)OC[C@H]1O[C@@H](n2cnc3c(NC(=O)Nc4ccccc4)ncnc32)[C@H](O[Si](C)(C)C(C)(C)C)[C@@H]1O[Si](C)(C)C(C)(C)C
[reply] 108

[ask] Please tell me: growth at 10 µM of CCOC(=O)C[C@H]1[C@@H](O[Si](C)(C)C(C)(C)C)[C@H](n2cnc3c(NC(=O)Nc4ccccc4)ncnc32)O[C@@H]1CNC(=O)NC , system SF-295?
[reply] 88

* * *

System: TK-10
Experiment: Growth inhibition of human TK10 cells assessed as cell growth at 10 uM after 48 hrs by SRB assay
Format: functional
Conditions: TK-10, 48 h, read-out: Activity
Entries and their growth at 10 µM
Field: numeric (%). Do not append units.

CNC(=O)OC[C@H]1O[C@@H](n2cnc3c(NC(=O)Nc4ccccc4)ncnc32)[C@H](O[Si](C)(C)C(C)(C)C)[C@@H]1O[Si](C)(C)C(C)(C)C; 96
CNC(=O)NC[C@H]1O[C@@H](n2cnc3c(NC(=O)Nc4ccccc4)ncnc32)[C@H](O[Si](C)(C)C(C)(C)C)[C@@H]1O[Si](C)(C)C(C)(C)C; 112
CCOC(=O)C[C@H]1[C@@H](O[Si](C)(C)C(C)(C)C)[C@H](n2cnc3c(NC(=O)Nc4ccccc4)ncnc32)O[C@@H]1CNC(=O)NC; 105

--- query ---
[ask] # returns recorded growth at 10 µM (system: TK-10) for CNC(=O)NC[C@H]1O[C@@H](n2cnc3c(NC(=O)Nc4ccccc4)ncnc32)[C@H](O[Si](C)(C)C(C)(C)C)[C@@H]1CC(=O)N(C)OC
[reply] 104

* * *

Reported growth at 10 µM by item:
Test system: SK-OV-3
Assay: Growth inhibition of human SKOV3 cells assessed as cell growth at 10 uM after 48 hrs by SRB assay
Format: functional
Conditions: SK-OV-3, 48 h, read-out: Activity
Write it as a number; the unit % goes unstated.

Example entries and their recorded answers appear below.
CNC(=O)NC[C@H]1O[C@@H](n2cnc3c(NC(=O)Nc4ccccc4)ncnc32)[C@H](O[Si](C)(C)C(C)(C)C)[C@@H]1CC(=O)N(C)OC; 95
CNC(=O)OC[C@H]1O[C@@H](n2cnc3c(NC(=O)Nc4ccccc4)ncnc32)[C@H](O[Si](C)(C)C(C)(C)C)[C@@H]1O[Si](C)(C)C(C)(C)C; 106
CCOC(=O)C[C@H]1[C@@H](O[Si](C)(C)C(C)(C)C)[C@H](n2cnc3c(NC(=O)Nc4ccccc4)ncnc32)O[C@@H]1CNC(=O)NC; 90

Next up:
[ask] What growth at 10 µM value was documented for this molecule, CNC(=O)NC[C@H]1O[C@@H](n2cnc3c(NC(=O)Nc4ccccc4)ncnc32)[C@H](O[Si](C)(C)C(C)(C)C)[C@@H]1O[Si](C)(C)C(C)(C)C ?
[reply] 107

* * *

Test system: KM12
Assay: Growth inhibition of human KM12 cells assessed as cell growth at 10 uM after 48 hrs by SRB assay
Assay type: functional
Conditions: KM12, 48 h, read-out: Activity
A collection of compounds and their measured growth at 10 µM
Kindly provide the numeric value in % only, without the unit symbol.

Below, each entry is followed by its recorded growth at 10 µM result.
CNC(=O)OC[C@H]1O[C@@H](n2cnc3c(NC(=O)Nc4ccccc4)ncnc32)[C@H](O[Si](C)(C)C(C)(C)C)[C@@H]1O[Si](C)(C)C(C)(C)C; 110
CNC(=O)NC[C@H]1O[C@@H](n2cnc3c(NC(=O)Nc4ccccc4)ncnc32)[C@H](O[Si](C)(C)C(C)(C)C)[C@@H]1O[Si](C)(C)C(C)(C)C; 107
CNC(=O)NC[C@H]1O[C@@H](n2cnc3c(NC(=O)Nc4ccccc4)ncnc32)[C@H](O[Si](C)(C)C(C)(C)C)[C@@H]1CC(=O)N(C)OC; 106

[ask] growth at 10 µM lookup needed for CCOC(=O)C[C@H]1[C@@H](O[Si](C)(C)C(C)(C)C)[C@H](n2cnc3c(NC(=O)Nc4ccccc4)ncnc32)O[C@@H]1CNC(=O)NC , thanks.
[reply] 105

* * *

System: 786-0
Assay: Growth inhibition of human 786-0 cells assessed as cell growth at 10 uM after 48 hrs by SRB assay
Format: functional
Details: 786-0, 48 h, read-out: Activity
measured.parameter: growth at 10 µM (%)
Give the value in % but do not write % after it.

Use the examples below as a reference point.
CNC(=O)NC[C@H]1O[C@@H](n2cnc3c(NC(=O)Nc4ccccc4)ncnc32)[C@H](O[Si](C)(C)C(C)(C)C)[C@@H]1O[Si](C)(C)C(C)(C)C; 110
CNC(=O)NC[C@H]1O[C@@H](n2cnc3c(NC(=O)Nc4ccccc4)ncnc32)[C@H](O[Si](C)(C)C(C)(C)C)[C@@H]1CC(=O)N(C)OC; 93
CCOC(=O)C[C@H]1[C@@H](O[Si](C)(C)C(C)(C)C)[C@H](n2cnc3c(NC(=O)Nc4ccccc4)ncnc32)O[C@@H]1CNC(=O)NC; 86

[ask] # query: growth at 10 µM of entry CNC(=O)OC[C@H]1O[C@@H](n2cnc3c(NC(=O)Nc4ccccc4)ncnc32)[C@H](O[Si](C)(C)C(C)(C)C)[C@@H]1O[Si](C)(C)C(C)(C)C
[reply] 94.6

* * *

Tested on: NCI-H226
Experiment: Growth inhibition of human NCI-H226 cells assessed as cell growth at 10 uM after 48 hrs by SRB assay
Type: functional
Settings: NCI-H226, 48 h, read-out: Activity
measured.parameter: growth at 10 µM (%)
Give the number; % is assumed, so skip it.

The following molecules have reported results that may help.
CNC(=O)NC[C@H]1O[C@@H](n2cnc3c(NC(=O)Nc4ccccc4)ncnc32)[C@H](O[Si](C)(C)C(C)(C)C)[C@@H]1CC(=O)N(C)OC; 99
CNC(=O)NC[C@H]1O[C@@H](n2cnc3c(NC(=O)Nc4ccccc4)ncnc32)[C@H](O[Si](C)(C)C(C)(C)C)[C@@H]1O[Si](C)(C)C(C)(C)C; 105
CCOC(=O)C[C@H]1[C@@H](O[Si](C)(C)C(C)(C)C)[C@H](n2cnc3c(NC(=O)Nc4ccccc4)ncnc32)O[C@@H]1CNC(=O)NC; 102

API: the following record is the query input.
[ask] Recall the recorded growth at 10 µM for CNC(=O)OC[C@H]1O[C@@H](n2cnc3c(NC(=O)Nc4ccccc4)ncnc32)[C@H](O[Si](C)(C)C(C)(C)C)[C@@H]1O[Si](C)(C)C(C)(C)C with NCI-H226 and state it.
[reply] 93.2
